Molecular target: T1, human IL-8 (human, UniProt P10145 23-99, limits assumed)
T1 construct: also called hIL-8; hIL8
T1 sequence (P10145 23-99 limits assumed): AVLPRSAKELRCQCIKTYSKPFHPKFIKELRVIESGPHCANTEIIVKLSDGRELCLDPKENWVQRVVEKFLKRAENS
Assay: SPR Biacore T200, Protein A/G capture, pH 5.8, 37C;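 further: antibodies captured by Protein A/G amine-coupled onto a CM4 sensor chip, with kinetic parameters derived using Biacore T200 Evaluation Software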
// reported Kd per item

binder	unitsLabel	Kd
H1032/L0442 (antibody, human IgG1, kappa, name in Kabat numbering, V domains shown, L442 = L395 + S31E) VH: QVQLVESGGGLVQPGGSLRLSCAASGFTFDKYYLSWVRQAPGKGLEWVGLIRNKDNGYHPEYSASVKGRFTISRDDSKNSLYLTMSDLKTEDTAVYYCARENHRYDVELAYWGQGTLVTVSS VL: DIQMTQSPSSLSASVGDRVTITCRASEIIYEYLAWYQQKPGKAPKLLIYKAKTHADGVPSRFSGSGSGTDFTFTISSLQPEDIATYYCKHHFGFPRTFGQGTKVEIKR	nM	43
H1028/L0442 (antibody, human IgG1, kappa, name in Kabat numbering, V domains shown, L442 = L395 + S31E) VH: QVQLVESGGGLVQPGGSLRLSCAASGFTFSDYYLSWVRQAPGKGLEWVGLIRNKDNYHHPEYSASVKGRFTISRDDSKNSLYLTMSDLKTEDTAVYYCARENHRYDVELAYWGQGTLVTVSS VL: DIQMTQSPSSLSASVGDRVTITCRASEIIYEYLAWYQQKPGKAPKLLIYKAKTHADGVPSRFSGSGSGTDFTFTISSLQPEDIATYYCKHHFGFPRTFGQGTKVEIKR	nM	140
H1040/L0442 (antibody, human IgG1, kappa, name in Kabat numbering, V domains shown, L442 = L395 + S31E) VH: QVQLVESGGGLVQPGGSLRLSCAASGFTFSEYYLSWVRQAPGKGLEWVGLIRNKDNHHHPEYSASVKGRFTISRDDSKNSLYLTMSDLKTEDTAVYYCARENHRYDVELAYWGQGTLVTVSS VL: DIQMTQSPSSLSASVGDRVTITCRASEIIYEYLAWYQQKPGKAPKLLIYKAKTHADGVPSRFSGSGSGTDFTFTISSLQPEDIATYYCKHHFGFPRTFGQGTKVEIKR	nM	140
